- Study Target: human PPARα ligand-binding domain (Gal4 chimera) (Homo sapiens, UniProt Q07869)
- Construct: coding for the hinge region and LBD of the canonical isoform of the respective nuclear receptor; expressed in transfected cells; host or cells: HEK293T
- Sequence (Q07869 239-466 limits assumed, change not shown): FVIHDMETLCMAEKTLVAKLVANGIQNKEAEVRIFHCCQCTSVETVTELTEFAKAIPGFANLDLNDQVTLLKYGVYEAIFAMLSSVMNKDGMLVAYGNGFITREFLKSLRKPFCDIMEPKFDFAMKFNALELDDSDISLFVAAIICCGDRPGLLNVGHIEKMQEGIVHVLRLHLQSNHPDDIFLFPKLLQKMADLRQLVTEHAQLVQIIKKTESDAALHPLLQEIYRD
- Procedure Details: Gal4 hybrid reporter gene assay, PPARα
- Format: cell-based
- Set-up: dose or concentration left out as unconfirmed
- Experimental Setup: read-out: max. rel. act. PPARα
Quantity: Emax (%)
Give a bare numeral; the unit % is implied.

Chemical String | Quantity | Numeric Value
O=C(O)CCc1cccc(NC(=O)c2ccc(OC(F)(F)F)cc2NC(=O)c2ccc3ccccc3c2)c1 | Emax | 31
O=C(O)CCc1cccc(NC(=O)c2ccccc2NC(=O)c2ccc(-c3cccs3)cc2)c1 | Emax | 27

// sample O=C(O)CCc1cccc(NC(=O)c2ccc(Cl)cc2NC(=O)c2ccc3ccccc3c2)c1 , its Emax was 16

# Emax of O=C(O)Cc1ccccc1NC(=O)c1ccccc1NC(=O)c1ccc2ccccc2c1 = 33

Per the record, O=C(O)CCc1cccc(NC(=O)c2ccccc2NC(=O)c2ccc(-c3cocn3)cc2)c1 has Emax of 36

Field Emax (entry Cc1ccc(C(=O)Nc2cccc(CCC(=O)O)c2)c(NC(=O)c2ccc3ccccc3c2)c1 ) reads 67

###

- Study Target: human FXR:retinoid X receptor (RXR) heterodimer (Homo sapiens)
- Construct: pcDNA3-hFXR[32] and pSG5-hRXR[33] served for receptor overexpression in the full-length FXR assay; expressed in transfected cells; host or cells: HeLa
- Sequence (P19793 whole entry): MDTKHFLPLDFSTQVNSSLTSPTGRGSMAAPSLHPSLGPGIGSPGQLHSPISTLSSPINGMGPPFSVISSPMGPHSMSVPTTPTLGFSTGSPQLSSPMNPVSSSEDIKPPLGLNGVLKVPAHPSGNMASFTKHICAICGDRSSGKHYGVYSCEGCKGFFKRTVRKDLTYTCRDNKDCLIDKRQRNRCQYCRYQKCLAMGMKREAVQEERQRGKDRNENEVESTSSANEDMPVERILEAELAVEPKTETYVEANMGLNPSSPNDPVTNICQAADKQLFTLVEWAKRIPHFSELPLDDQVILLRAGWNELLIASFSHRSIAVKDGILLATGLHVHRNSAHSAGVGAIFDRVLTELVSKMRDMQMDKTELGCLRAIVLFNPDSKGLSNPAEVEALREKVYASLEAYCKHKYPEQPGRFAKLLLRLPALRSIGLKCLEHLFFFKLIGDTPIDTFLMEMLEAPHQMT
- Sequence (Q96RI1 whole entry): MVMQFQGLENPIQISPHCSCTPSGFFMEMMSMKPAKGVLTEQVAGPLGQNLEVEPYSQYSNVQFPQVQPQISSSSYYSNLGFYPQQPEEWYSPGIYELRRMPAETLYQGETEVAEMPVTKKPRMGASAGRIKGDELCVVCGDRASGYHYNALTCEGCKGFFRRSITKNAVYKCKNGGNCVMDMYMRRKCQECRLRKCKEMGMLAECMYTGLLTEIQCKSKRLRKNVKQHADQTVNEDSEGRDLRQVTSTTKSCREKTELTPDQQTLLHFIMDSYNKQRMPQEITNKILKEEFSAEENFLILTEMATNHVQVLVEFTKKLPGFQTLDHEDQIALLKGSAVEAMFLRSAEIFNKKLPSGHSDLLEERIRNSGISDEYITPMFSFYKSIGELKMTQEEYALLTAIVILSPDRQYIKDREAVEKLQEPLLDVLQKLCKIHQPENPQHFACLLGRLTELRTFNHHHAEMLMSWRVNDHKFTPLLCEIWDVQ
- Procedure Details: Full-length FXR reporter gene assay (BSEP response element) in HeLa cells
- Format: cell-based
- Set-up: dose or concentration left out as unconfirmed
- Experimental Setup: HeLa, read-out: max. rel. act. FXR
Use T when the recorded Emax is no lower than 20%; use F when it is lower.

Worked examples, 5 compounds total:
Compound | Group
CC(C)(C)c1ccc(C(=O)Nc2cccc(CCC(=O)O)c2)c(NC(=O)c2ccc(-c3ccco3)cc2)c1 [compound 41] | F
O=C(O)Cc1ccccc1NC(=O)c1ccccc1NC(=O)c1ccc2ccccc2c1 [compound 7] | T
O=C(O)CCc1cccc(NC(=O)c2ccccc2NC(=O)c2ccc(-c3cocn3)cc2)c1 [compound 37] | T
O=C(O)CCc1cccc(NC(=O)c2ccccc2NC(=O)c2ccc(-c3ccsc3)cc2)c1 [compound 34] | F
O=C(O)CNc1cccc(NC(=O)c2ccccc2NC(=O)c2ccc3ccccc3c2)c1 [compound 14] | T

Req: Please check the record O=C(O)CCc1ccc(NC(=O)c2ccccc2NC(=O)c2ccc3ccccc3c2)cc1 [compound 12] and state if its Emax is at or above 20%.
Resp: T

Req: Textbook exercise: given the entry O=C(O)CCc1cccc(NC(=O)c2ccccc2NC(=O)c2ccc(-c3cccs3)cc2)c1 [compound 33] , state whether its Emax is greater than or equal to 20%.
Resp: T

Req: Say whether O=C(O)CCc1cccc(NC(=O)c2ccc(OC(F)(F)F)cc2NC(=O)c2ccc3ccccc3c2)c1 [compound 23] shows Emax of 20% or more.
Resp: F

Req: I'd appreciate it if you could say whether Cc1ccc(C(=O)Nc2cccc(CCC(=O)O)c2)c(NC(=O)c2ccc3ccccc3c2)c1 [compound 17] has Emax at least equal to 20%.
Resp: T

Req: In plain terms: is recorded Emax at least 20% for O=C(O)CCc1cccc(NC(=O)c2cc3c(cc2NC(=O)c2ccc4ccccc4c2)OCO3)c1 [compound 29] ?
Resp: F

Req: Reported Emax at or above 20%? O=C(O)CCc1cccc(NC(=O)c2ccccc2NC(=O)c2ccc(-c3ccon3)cc2)c1 [compound 35]
Resp: T

###

- Study Target: human PPARγ ligand-binding domain (Gal4 chimera) (Homo sapiens)
- Construct: coding for the hinge region and LBD of the canonical isoform of the respective nuclear receptor; expressed in transfected cells; host or cells: HEK293T
- Sequence (P37231 238-503 limits assumed): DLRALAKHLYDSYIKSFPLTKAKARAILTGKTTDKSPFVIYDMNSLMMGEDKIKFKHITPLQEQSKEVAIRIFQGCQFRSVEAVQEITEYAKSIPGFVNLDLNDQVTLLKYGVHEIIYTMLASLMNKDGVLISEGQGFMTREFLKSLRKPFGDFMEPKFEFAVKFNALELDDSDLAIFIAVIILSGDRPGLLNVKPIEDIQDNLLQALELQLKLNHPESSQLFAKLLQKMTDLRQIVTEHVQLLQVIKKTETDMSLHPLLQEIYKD
- Procedure Details: Gal4 hybrid reporter gene assay, PPARγ
- Assay type: cell-based
- Set-up: dose or concentration left out as unconfirmed
- Experimental Setup: read-out: PPAR max. rel. act.
As shown below, each of these molecules has a reported Emax value.
The response must be a number in % with no trailing unit.

Worked cases, answers included:
Chemical String | Study Target | Quantity | Numeric Value
O=C(O)CCc1cccc(NC(=O)c2ccccc2NC(=O)C2=Cc3cccc(Cl)c3OC2)c1 | human PPARγ ligand-binding domain (Gal4 chimera) (Homo sapiens) | Emax | 7.6
O=C(O)CCc1cccc(NC(=O)c2ccccc2NC(=O)C2=Cc3cc(F)ccc3OC2)c1 | human PPARγ ligand-binding domain (Gal4 chimera) (Homo sapiens) | Emax | 17
Cc1cccc2c1C=C(C(=O)Nc1ccccc1C(=O)Nc1cccc(CCC(=O)O)c1)CO2 | human PPARγ ligand-binding domain (Gal4 chimera) (Homo sapiens) | Emax | 14

For the next question, use this molecule.
Kindly note the recorded Emax for COc1cccc2c1OCC(C(=O)Nc1ccccc1C(=O)Nc1cccc(CCC(=O)O)c1)=C2 , which is 8.6

###

# reported Emax; entries follow
- Study Target: human PPARδ ligand-binding domain (Gal4 chimera) (Homo sapiens, UniProt Q03181)
- Construct: coding for the hinge region and LBD of the canonical isoform of the respective nuclear receptor; expressed in transfected cells; host or cells: HEK293T
- Sequence (Q03181 211-439 limits assumed, stated change not applied): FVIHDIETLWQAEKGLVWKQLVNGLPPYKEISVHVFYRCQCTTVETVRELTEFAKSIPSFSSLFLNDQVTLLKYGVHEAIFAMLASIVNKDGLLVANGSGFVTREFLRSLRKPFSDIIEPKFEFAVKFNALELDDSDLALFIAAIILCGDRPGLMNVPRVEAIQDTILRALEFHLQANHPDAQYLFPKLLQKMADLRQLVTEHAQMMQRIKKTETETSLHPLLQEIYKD
- Procedure Details: Gal4 hybrid reporter gene assay, PPARδ
- Assay type: cell-based
- Design: dose or concentration left out as unconfirmed
- Experimental Setup: read-out: max. rel. act. PPARδ
Respond with the bare value in %.

Consider the following illustrative entries.
Compound | Unit Abbreviation | Emax
O=C(O)CCc1cccc(NC(=O)c2ccccc2NC(=O)c2ccc(-c3ccccc3)cc2)c1 [compound 30] | % | 38
Cc1cccc(C(=O)Nc2cccc(CCC(=O)O)c2)c1NC(=O)c1ccc2ccccc2c1 [compound 16] | % | 30
O=C(O)CCc1cccc(NC(=O)c2ccc(OC(F)(F)F)cc2NC(=O)c2ccc3ccccc3c2)c1 [compound 23] | % | 30
CC(C)(C)c1ccc(C(=O)Nc2cccc(CCC(=O)O)c2)c(NC(=O)c2ccc(-c3ccco3)cc2)c1 [compound 41] | % | 34
Cc1ccc(C(=O)Nc2cccc(CCC(=O)O)c2)c(NC(=O)c2ccc3ccccc3c2)c1 [compound 17] | % | 34

Okay, next one:
Form: compound = O=C(O)CCc1cccc(NC(=O)c2ccccc2NC(=O)c2ccc(-c3cccs3)cc2)c1 [compound 33] ; Emax = 35

###

Measured Emax of individual entries
- Study Target: human PPARδ ligand-binding domain (Gal4 chimera) (Homo sapiens, UniProt Q03181)
- Construct: coding for the hinge region and LBD of the canonical isoform of the respective nuclear receptor; expressed in transfected cells; host or cells: HEK293T
- Procedure Details: Gal4 hybrid reporter gene assay, PPARδ
- Assay type: cell-based
- Design: dose or concentration left out as unconfirmed
- Experimental Setup: read-out: max. rel. act. PPARδ
Form entry: value (%) — number only.

Per the record, O=C(O)CCc1cccc(NC(=O)c2cc3c(cc2NC(=O)c2ccc4ccccc4c2)OCO3)c1 has Emax of 31

Reported Emax ( O=C(O)CCc1cccc(NC(=O)c2cc(OC(F)(F)F)ccc2NC(=O)c2ccc3ccccc3c2)c1 ) = 19

Lab note: O=C(O)CCc1cccc(NC(=O)c2ccccc2NC(=O)c2ccc(-c3cocn3)cc2)c1 gave Emax of 52

###

- Study Target: human PPARδ ligand-binding domain (Gal4 chimera) (Homo sapiens, UniProt Q03181)
- Construct: coding for the hinge region and LBD of the canonical isoform of the respective nuclear receptor; expressed in transfected cells; host or cells: HEK293T
- Procedure Details: Gal4 hybrid reporter gene assay, PPARδ
- Type: cell-based
- Design: dose or concentration left out as unconfirmed
- Experimental Setup: read-out: max. rel. act. PPARδ
Recorded Emax, one value per entry.
Kindly provide the numeric value in % only, without the unit symbol.

Use these answered entries as a reference point.
Molecule | Unit Abbreviation | Numeric Value
Cc1ccc(NC(=O)c2ccc3ccccc3c2)c(C(=O)Nc2cccc(CCC(=O)O)c2)c1 [compound 18] | % | 14
O=C(O)CCc1cccc(NC(=O)c2ccccc2NC(=O)c2ccc3ccccc3c2)c1 [compound 9] | % | 28

Consider the record given below.
Note to self: Emax recorded for CC(C)(Nc1cccc(NC(=O)c2ccccc2NC(=O)c2ccc3ccccc3c2)c1)C(=O)O [compound 15] was 42
